Target: Nitric oxide synthase 1 (Rattus norvegicus)
Assay: NO releasing ability of compound measured through formation of nitrite using nNOS (nitric oxide synthases)
Format: functional
Exercise: for every item that follows, state its recorded Activity.
Answers are plain numbers, in µM.

// known answers, use as guide
{"columns": ["molecule", "experimental readout", "reported measurement"],
 "data": [
  ["N/C(=N\\O)NCCN1CCCCCCC1", "Activity", 0.3],
  ["N/C(=N/CC1COC2(CCCCC2)O1)NO (stereo unspecified)", "Activity", 1.2]
]}

Alright, here's another molecule for you.
Asked: Notebook: pull reported Activity for Nitric oxide synthase 1 (Rattus norvegicus), entry N/C(=N/CC1COc2ccccc2O1)NO (stereo unspecified)
Given back: 0.8

###

Target: Nitric oxide synthase, inducible (Homo sapiens)
Assay: NO releasing ability of compound measured through formation of nitrite using iNOS (nitric oxide synthases)
Type: functional
experimental readout: Activity (µM)
Numbers only, in µM.

// known answers, use as guide
{"columns": ["compound", "Activity, µM"],
 "data": [
  ["N/C(=N/CC1COC2(CCCCC2)O1)NO (stereo unspecified)", 1.6],
  ["N/C(=N\\O)NCCN1CCCCCCC1", 0.2]
]}

Alright, here's another compound for you.
Asked: What does the record list as Activity for N/C(=N/CC1COc2ccccc2O1)NO (stereo unspecified) ?
Given back: 0.9

###

Target: Nitric oxide synthase 1 (Rattus norvegicus)
Test: NO releasing ability of compound measured through formation of nitrite using nNOS (nitric oxide synthases)
Assay type: functional
Exercise: for every item that follows, state its recorded Activity.

{"columns": ["compound", "Activity"],
 "data": [
  ["N=C(N)NCC1COc2ccccc2O1 (stereo not drawn)", "< 0.1 µM"],
  ["N=C(N)NCCN1CCCCCCC1", "< 0.1 µM"]
]}

Alright, here's another compound for you.
Asked: What does the record list as Activity for N=C(N)NCC1COC2(CCCCC2)O1 (stereo not drawn) ?
Given back: < 0.1 µM

###

Exercise: for every item that follows, state its recorded Activity.
Target: Nitric oxide synthase, inducible (Homo sapiens) (UniProt P35228)
Sequence (P35228 whole entry): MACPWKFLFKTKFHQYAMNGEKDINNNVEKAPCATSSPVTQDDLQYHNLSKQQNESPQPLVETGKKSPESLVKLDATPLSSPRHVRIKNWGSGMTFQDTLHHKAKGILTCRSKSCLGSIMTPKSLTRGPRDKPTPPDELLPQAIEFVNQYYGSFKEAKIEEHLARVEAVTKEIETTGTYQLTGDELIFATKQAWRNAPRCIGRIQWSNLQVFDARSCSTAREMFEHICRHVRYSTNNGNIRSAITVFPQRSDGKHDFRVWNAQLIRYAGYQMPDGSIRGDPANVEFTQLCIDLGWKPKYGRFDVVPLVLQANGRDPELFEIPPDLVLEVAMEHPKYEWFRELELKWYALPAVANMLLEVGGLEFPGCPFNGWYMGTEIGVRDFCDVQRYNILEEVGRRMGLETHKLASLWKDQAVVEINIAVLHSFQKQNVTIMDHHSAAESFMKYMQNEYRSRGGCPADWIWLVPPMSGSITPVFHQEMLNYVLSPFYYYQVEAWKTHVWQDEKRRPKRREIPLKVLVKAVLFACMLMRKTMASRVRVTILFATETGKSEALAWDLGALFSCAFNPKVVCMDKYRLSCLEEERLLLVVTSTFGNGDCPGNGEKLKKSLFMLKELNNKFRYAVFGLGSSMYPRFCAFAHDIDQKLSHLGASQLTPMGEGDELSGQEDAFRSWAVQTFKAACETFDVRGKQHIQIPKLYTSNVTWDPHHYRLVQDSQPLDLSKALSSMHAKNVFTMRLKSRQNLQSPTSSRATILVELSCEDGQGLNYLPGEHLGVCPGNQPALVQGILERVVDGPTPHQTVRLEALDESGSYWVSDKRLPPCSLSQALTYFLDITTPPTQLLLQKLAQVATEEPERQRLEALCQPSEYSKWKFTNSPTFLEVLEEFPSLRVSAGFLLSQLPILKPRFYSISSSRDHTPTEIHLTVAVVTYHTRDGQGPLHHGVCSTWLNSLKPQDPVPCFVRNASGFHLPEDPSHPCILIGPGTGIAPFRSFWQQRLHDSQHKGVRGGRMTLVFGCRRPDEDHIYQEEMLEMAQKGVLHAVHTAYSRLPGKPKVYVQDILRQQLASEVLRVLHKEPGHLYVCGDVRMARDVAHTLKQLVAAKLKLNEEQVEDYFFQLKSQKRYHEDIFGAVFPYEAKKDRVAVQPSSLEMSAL
Assay: NO releasing ability of compound measured through formation of nitrite using iNOS (nitric oxide synthases)
Format: functional

{"columns": ["compound", "experimental readout", "reported measurement"],
 "data": [
  ["N=C(N)NCC1COC2(CCCCC2)O1 (stereo not drawn)", "Activity", "< 0.1 µM"]
]}

The following compounds each have a reported value; give each one's Activity.
1. N=C(N)NCC1COc2ccccc2O1 (stereo not drawn)
2. N=C(N)NCCN1CCCCCCC1

Given back:
1: < 0.1 µM; 2: < 0.1 µM

Each recorded value in this set is attributed to ChEMBL document CHEMBL1133943.
